tested on: Mycoplasma gallisepticum; test: MIC, broth-dilution microtiter test, Mycoplasma gallisepticum; type: cell-based; settings: Mycoplasmoides gallisepticum; Mycoplasma gallisepticum; broth-dilution microtiter; read-out: MIC
observation type: MIC
Field note: include the unit after the figure.

The cases that follow already have their MIC on record.
>>> meas_value("CCC1OC(=O)CC(O)C(C)C(OC2OC(C)C(OC3CC(C)(O)C(O)C(C)O3)C(N(C)C)C2O)C(CCOc2ccc(C(=O)c3ccccc3)cc2)CC(C)C(=O)C=CC(C)=CC1COC1OC(C)C(O)C(OC)C1OC (centres unmarked)")
"0.78 µg/mL"
>>> meas_value("CCC1OC(=O)CC(O)C(C)C(OC2OC(C)C(OC3CC(C)(O)C(O)C(C)O3)C(N(C)C)C2O)C(CCSc2ccccc2)CC(C)C(=O)C=CC(C)=CC1COC1OC(C)C(O)C(OC)C1OC (centres unmarked)")
"0.78 µg/mL"

Request: Data request, read-out MIC, for CCOC(=O)c1ccc(OCCC2CC(C)C(=O)C=CC(C)=CC(COC3OC(C)C(O)C(OC)C3OC)C(CC)OC(=O)CC(O)C(C)C2OC2OC(C)C(O)C(N(C)C)C2O)cc1 (centres unmarked)
Result: 0.39 µg/mL

Request: Next: CCC1OC(=O)CC(O)C(C)C(OC2OC(C)C(OC3CC(C)(O)C(O)C(C)O3)C(N(C)C)C2O)C(CCOc2cccc(N(C)C)c2)CC(C)C(=O)C=CC(C)=CC1COC1OC(C)C(O)C(OC)C1OC (centres unmarked)
Result: 1.56 µg/mL

Request: Now the compound CCC1OC(=O)CC(O)C(C)C(OC2OC(C)C(O)C(N(C)C)C2O)C(CCOc2ccc([N+](=O)[O-])cc2)CC(C)C(=O)C=CC(C)=CC1COC1OC(C)C(O)C(OC)C1OC (centres unmarked)
Result: 0.39 µg/mL

---

tested on: Streptococcus pyogenes C203; experiment: MIC, standard agar-dilution assay, Streptococcus pyogenes C203; assay type: cell-based; details: Streptococcus pyogenes, C203
Item-by-item account of log10 MIC
Parameter value (number): base-10 log of MIC in µg/mL.

Use the examples below as a reference point.
>>> meas_value("CCC1OC(=O)CC(O)C(C)C(OC2OC(C)C(OC3CC(C)(O)C(O)C(C)O3)C(N(C)C)C2O)C(CCI)CC(C)C(=O)C=CC(C)=CC1COC1OC(C)C(O)C(O)C1OC (stereo not drawn) [Compound 52, 20-DH-DO-20-Iodomacrocin]")
0.60
>>> meas_value("CCC1OC(=O)CC(O)C(C)C(OC2OC(C)C(OC3CC(C)(O)C(O)C(C)O3)C(N(C)C)C2O)C(CCNC(=O)Cc2ccccc2)CC(C)C(=O)C=CC(C)=CC1COC1OC(C)C(O)C(OC)C1OC (stereo not drawn) [Compound 3]")
0.30
>>> meas_value("CCC1OC(=O)CC(O)C(C)C(OC2OC(C)C(O)C(N(C)C)C2O)C(CCOC(=O)COc2ccccc2)CC(C)C(=O)C=CC(C)=CC1COC1OC(C)C(O)C(OC)C1OC (stereo not drawn) [Compound 26, 20-DH-20-O-(Phenoxyacetyl)desmycosin]")
-0.92
>>> meas_value("CCC1OC(=O)CC(O)C(C)C(OC2OC(C)C(OC3CC(C)(O)C(O)C(C)O3)C(N(C)C)C2O)C(CCN2C(=O)c3ccccc3C2=O)CC(C)C(=O)C=CC(C)=CC1COC1OC(C)C(O)C(OC)C1OC (stereo not drawn) [Compound 1, 20-DH-DO-20-N-Phthalimidotylosin]")
0.30
>>> meas_value("CCOC(=O)c1ccc(OCCC2CC(C)C(=O)C=CC(C)=CC(COC3OC(C)C(O)C(OC)C3OC)C(CC)OC(=O)CC(O)C(C)C2OC2OC(C)C(O)C(N(C)C)C2O)cc1 (stereo not drawn) [Compound 38]")
-0.30

Request: Look at this molecule and give its reported log10 MIC. CCOC(=O)NN(CCC1CC(C)C(=O)C=CC(C)=CC(COC2OC(C)C(O)C(OC)C2OC)C(CC)OC(=O)CC(O)C(C)C1OC1OC(C)C(OC2CC(C)(O)C(O)C(C)O2)C(N(C)C)C1O)C(=O)OCC (stereo not drawn) [Compound 9]
Result: 1.20

Request: Another: CCC1OC(=O)CC(O)C(C)C(OC2OC(C)C(O)C(N(C)C)C2O)C(CCOCCc2ccccc2)CC(C)C(=O)C=CC(C)=CC1COC1OC(C)C(O)C(OC)C1OC (stereo not drawn) [Compound 31, 20-DH-20-O-(Phenethyl)desmycosin]
Result: 0.00

Request: Now give it for CCC1OC(=O)CC(O)C(C)C(OC2OC(C)C(O)C(N(C)C)C2O)C(CCCl)CC(C)C(=O)C=CC(C)=CC1COC1OC(C)C(O)C(OC)C1OC (stereo not drawn) [Compound 21, 20-DH-DO-20-Chlorodesmycosin] too.
Result: -0.60

Request: CCC1OC(=O)CC(O)C(C)C(OC2OC(C)C(O)C(N(C)C)C2O)C(CCOc2cccc(N(C)C)c2)CC(C)C(=O)C=CC(C)=CC1COC1OC(C)C(O)C(OC)C1OC (stereo not drawn) [Compound 39] ?
Result: -0.60

Request: Same for CCC1OC(=O)CC(O)C(C)C(OC2OC(C)C(OC3CC(C)(O)C(O)C(C)O3)C(N(C)C)C2O)C(CCN=[N+]=[N-])CC(C)C(=O)C=CC(C)=CC1COC1OC(C)C(O)C(OC)C1OC (stereo not drawn) [Compound 2, 20-DH-DO-20-Azidotylosin]
Result: 0.30

Request: Same read-out for CCC1OC(=O)CC(O)C(C)C(OC2OC(C)C(O)C(N(C)C)C2O)C(CCOc2ccc(C=O)cc2)CC(C)C(=O)C=CC(C)=CC1COC1OC(C)C(O)C(OC)C1OC (stereo not drawn) [Compound 36, 20-DH-20-O-(p-formylphenyl)desmycosin] ?
Result: 0.00

Request: What would you report for CCC1OC(=O)CC(O)C(C)C(OC2OC(C)C(O)C(N(C)C)C2O)C(CCOC(C(F)(F)F)C(F)(F)F)CC(C)C(=O)C=CC(C)=CC1COC1OC(C)C(O)C(OC)C1OC (stereo not drawn) [Compound 32] ?
Result: -0.30

Request: CCC1OC(=O)CC(O)C(C)C(OC2OC(C)C(O)C(N(C)C)C2O)C(CCF)CC(C)C(=O)C=CC(C)=CC1COC1OC(C)C(O)C(OC)C1OC (stereo not drawn) [Compound 22, 20-DH-DO-20-Fluorodesmycosin] , same question.
Result: -0.60

Request: Note, next up: CCC1OC(=O)CC(O)C(C)C(OC2OC(C)C(OC3CC(C)(O)C(O)C(C)O3)C(N(C)C)C2O)C(C)CC(C)C(=O)C=CC(C)=CC1COC1OC(C)C(O)C(O)C1OC (stereo not drawn) [Compound 54, 20-Deformylmacrocin]
Result: 0.30

Request: And CCC1OC(=O)CC(O)C(C)C(OC2OC(C)C(OC3CC(C)(O)C(O)C(C)O3)C(N(C)C)C2O)C(CCOc2ccc(C=O)cc2)CC(C)C(=O)C=CC(C)=CC1COC1OC(C)C(O)C(OC)C1OC (stereo not drawn) [Compound 17, 20-DH-20-O-(p-Formylphenyl)tylosin] ?
Result: 0.00

Request: Same lookup for CCC1OC(=O)CC(O)C(C)C(OC2OC(C)C(O)C(N(C)C)C2O)C(CC2Nc3ccccc3S2)CC(C)C(=O)C=CC(C)=CC1COC1OC(C)C(O)C(OC)C1OC (stereo not drawn) [Compound 75] , please.
Result: -0.30

Request: Next molecule: CCC1OC(=O)CC(O)C(C)C(OC2OC(C)C(O)C(N(C)C)C2O)C(CCO[N+](=O)[O-])CC(C)C(=O)C=CC(C)=CC1COC1OC(C)C(O)C(OC)C1OC (stereo not drawn) [Compound 28, 20-DH-20-O-NO2-desmycosin]
Result: -0.60

Request: // query: CCC1OC(=O)CC(O)C(C)C(OC2OC(C)C(O)C(N(C)C)C2O)C(CCI)CC(C)C(=O)C=CC(C)=CC1COC1OC(C)C(O)C(O)C1OC (stereo not drawn) [Compound 57, 20-DH-DO-20-Iodolactenocin]
Result: -0.30

---

tested on: Streptococcus pyogenes C203; assay: MIC, standard agar-dilution assay, Streptococcus pyogenes C203; type: cell-based; conditions: Streptococcus pyogenes, C203
Measured MIC of individual entries
The answer is to be given in µg/mL; state only the numeric part.

Some compounds with known MIC results, for comparison:
>>> meas_value("CCC1OC(=O)CC(O)C(C)C(OC2OC(C)C(OC3CC(C)(O)C(O)C(C)O3)C(N(C)C)C2O)C(CCOc2cc(Cl)cc(Cl)c2)CC(C)C(=O)C=CC(C)=CC1COC1OC(C)C(O)C(OC)C1OC (stereo not shown) [Compound 15, 20-DH-20-O-(3,5-Dichlorophenyl)tylosin]")
1
>>> meas_value("CCC1OC(=O)CC(O)C(C)C(OC2OC(C)C(O)C(N(C)C)C2O)C(CCOc2ccc(OC)cc2)CC(C)C(=O)C=CC(C)=CC1COC1OC(C)C(O)C(OC)C1OC (stereo not shown) [Compound 35, 20-DH-20-O-(p-Methoxyphenyl)desmycosin]")
1

Request: Look up MIC: CCC1OC(=O)CC(O)C(C)C(OC2OC(C)C(O)C(N(C)C)C2O)C(CCOC)CC(C)C(=O)C=CC(C)=CC1COC1OC(C)C(O)C(OC)C1OC (stereo not shown) [Compound 30, 20-DH-20-O-Methyldesmycosin]
Result: 0.5

Request: What about CCC1OC(=O)CC(O)C(C)C(OC2OC(C)C(OC3CC(C)(O)C(O)C(C)O3)C(N(C)C)C2O)C(CCOc2ccc([N+](=O)[O-])cc2)CC(C)C(=O)C=CC(C)=CC1COC1OC(C)C(O)C(OC)C1OC (stereo not shown) [Compound 12, 20-DH-20-O-(p-Nitrophenyl)tylosin] ?
Result: 2
